This collection of values is drawn from ChEMBL document CHEMBL5380869.

experimentalProtocol: Lipophilicity, CHI logD of compound at pH 7.4 by UPLC-TOF analysis
Format: physicochemical
testSettings: buffer
measureName: chromatographic logD
No unit in the answer, only the number.

Here's what some known entries look like.
compound="Cc1c2c(nn1C)CSCc1cc(n(C)n1)CSc1cc(c3ccccc3c1)OCCCc1c(C(=O)O)n(C)c3c-2c(Cl)ccc13 [AZD-5991]" reportedresult=2.4
compound=COC[C@H]1/C(C)=C/C[C@H](C)[C@@H](C)S(=O)(=O)NC(=O)c2ccc3c(c2)N(C[C@@H]2CCO[C@H]21)C[C@@]1(CCCc2cc(Cl)ccc21)CO3 reportedresult=3.7
compound=COc1nn(C)cc1C(=O)N[S@@]1(=O)=NC(=O)c2ccc3c(c2)N(C[C@@H]2CCO[C@H]2[C@@](CN2CCN4CCOC[C@@H]4C2)(OC)/C(F)=C/C[C@H](C)C1)C[C@@]1(CCCc2cc(Cl)ccc21)CO3 reportedresult=2.9
compound=C[C@@H]1[C@@H](C)C/C=C/[C@H](O)[C@@H]2OCC[C@H]2CN2C[C@@]3(CCCc4cc(Cl)ccc43)COc3ccc(cc32)C(=O)NS1(=O)=O reportedresult=2.6
compound=C[C@@H]1[C@@H](C)C/C=C/[C@H](OCCN2CCOCC2)[C@@H]2OCC[C@H]2CN2C[C@@]3(CCCc4cc(Cl)ccc43)COc3ccc(cc32)C(=O)NS1(=O)=O reportedresult=2.7

Lookup: Record request: chromatographic logD value, item COc1nn(C)cc1C(=O)N[S@@]1(=O)=NC(=O)c2ccc3c(c2)N(C[C@@H]2CCO[C@H]2[C@@H](OC)/C=C/C[C@H](C)C1)C[C@@]1(CCCc2cc(Cl)ccc21)CO3
Found: 2.9

Lookup: Record request: chromatographic logD value, item COc1nn(C)cc1C(=O)N[S@]1(=O)=NC(=O)c2ccc3c(c2)N(C[C@@H]2CCO[C@H]2[C@@](CN2CCN4CCOC[C@@H]4C2)(OC)/C(F)=C/C[C@H](C)C1)C[C@@]1(CCCc2cc(Cl)ccc21)CO3
Found: 3

Lookup: Record request: chromatographic logD value, item CO[C@H]1/C=C/C[C@H](C)[C@@H](C)S(=O)(=O)NC(=O)c2ccc3c(c2)N(C[C@@H]2CCO[C@H]21)C[C@@]1(CCCc2cc(Cl)ccc21)CO3
Found: 2.9

Lookup: Record request: chromatographic logD value, item CO[C@H]1/C(F)=C/C[C@H](C)[C@@H](C)S(=O)(=O)NC(=O)c2ccc3c(c2)N(C[C@@H]2CCO[C@H]21)C[C@@]1(CCCc2cc(Cl)ccc21)CO3
Found: 3

Lookup: Record request: chromatographic logD value, item CO[C@@H]1/C(F)=C/C[C@H](C)[C@@H](C)S(=O)(=O)NC(=O)c2ccc3c(c2)N(C[C@@H]2CCO[C@H]21)C[C@@]1(CCCc2cc(Cl)ccc21)CO3
Found: 3

Lookup: Record request: chromatographic logD value, item COc1nn(C)cc1C(=O)N[S@@]1(=O)=NC(=O)c2ccc3c(c2)N(C[C@@H]2CCO[C@H]2[C@@H](OC)/C(F)=C/C[C@H](C)C1)C[C@@]1(CCCc2cc(Cl)ccc21)CO3
Found: 3
